Listed next: entries and their corresponding normalized growth.
- method: chemical genetic growth profiling, strain panel (AID 1159580);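 note: tested at 20 µM; growth read once vehicle control cultures reached saturation at 30 °C; 1 = growth at the plate median or of vehicle wells; lower values mean less growth of the strain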
- cond: S. cerevisiae deletion strains, growth OD, locus YLL001W, strain dnm1, active compounds read low
Screen size: about 5,500 compounds; about 2,000 (36%) were called active. Inconclusive results (about 18%) are left out. The list shows a part of the results.
Please respond with just the number, no unit label.

For orientation, consider the following solved cases.
COC(=O)C[C@H]1C(C)(C)C2(O)OC34CC2C(=O)[C@]1(C)C3CC[C@]1(C)C4=CC(=O)O[C@H]1c1ccoc1 (some centres undefined)	1.02
CCCCCCCCCCCC[C@H](C(=O)O)[C@@H](C)C(=O)O	1.01
Cc1ccc(S(=O)(=O)NC(=O)NN2CC3CCCC3C2)cc1 (centres undefined)	0.953
Cc1ccc(N=CN(C)C=Nc2ccc(C)cc2C)c(C)c1	0.998

Now, please, on to the next compound.
Please indicate normalized growth recorded for "NCCC(=O)N[C@@H](Cc1cnc[nH]1)C(=O)O" 1

* * *

- method: chemical genetic growth profiling, strain panel (AID 1159580)
- cond: S. cerevisiae deletion strains, growth OD, locus YKL160W, strain elf1
In all, about 5,500 compounds went through this assay and about 2,000 (36%) were called active. About 18% were inconclusive and are not listed. Rule as the data show it: active = normalized growth mostly below about 0.91 (no sharp cut-off); inconclusive = no clear call, values can overlap the other calls; inactive = mostly above about 0.92. The list shows a part of the results.
Lab note: assign the record to one of 1 (active), 0 (inactive)

For orientation, consider the following solved cases.
CCOP(=S)(OCC)Oc1nc(Cl)c(Cl)cc1Cl	0
Nc1c2ccccc2nc2ccccc12	1

For this molecule, state the assay outcome: "CNC(=O)O/N=C\C(C)(C)SC" 0

// outcome(item) with item = CCC(C)C(=O)O[C@H]1[C@H](O)C2C(CN3CC(C)CCC3[C@@]2(C)O)C2C[C@]34O[C@]5(O)C(OC(=O)C(C)(O)CC)CC[C@@]3(C)C5C(OC(C)=O)[C@@H](OC(C)=O)C4[C@@]21O (stereo not given in full) 0

Call for entry "COc1ccc2[nH]cc(CCN)c2c1" : 0

* * *

- method: chemical genetic growth profiling, strain panel (AID 1159580)
- cond: S. cerevisiae deletion strains, growth OD, locus YBR135W, strain CKS1, active compounds read low
In all, about 5,500 compounds went through this assay and about 2,000 (36%) were called active. Inconclusive results (about 18%) are left out. The list shows a part of the results.
readout_kind: normalized growth
Lab note: jot the number down without any unit.

Please review the entries below; each comes with its answer.
O=[N+]([O-])c1ccc(S(=O)(=O)c2ccccc2)nc1S(=O)(=O)c1ccccc1	0.903
O=C(NCC1COc2ccccc2O1)c1ccc(Cl)cc1 (stereo unspecified)	0.935
O=C(NCCNc1ncc(C(F)(F)F)cc1Cl)C(F)(F)Sc1ccccc1	0.971
CC(C)(C)C(=O)N(Cc1cccnc1)Cc1ccc(Cl)cc1Cl	1
O=C(NCCNc1ncc(Cl)cc1C(F)(F)F)C(F)(F)Sc1ccccc1	0.975
Cc1nc(-c2cccnc2)nc(NCc2ccccc2)c1Cl	0.941
O=S(=O)(c1ccc(Cl)cc1)N(Cc1cccnc1)Cc1ccc(Cl)cc1Cl	0.962
O=[N+]([O-])c1cnc(Sc2nnc(SCc3cccc(C(F)(F)F)c3)s2)s1	0.0984

Return the recorded normalized growth value; entry: "Cc1oc(C(C)(C)C)cc1-c1cc(N)n(-c2ccc(I)cc2)n1" 1.02

Output normalized growth of "O=C(c1ccc(Cl)cc1)N(Cc1ccccc1)Cc1cccnc1" 0.989

For the compound "O=C(CSCc1csc2ccccc12)Nc1ccc(F)c(Cl)c1" , report normalized growth. 0.973

* * *

- method: chemical genetic growth profiling, strain panel (AID 1159580)
- cond: S. cerevisiae deletion strains, growth OD, locus YPR119W, strain clb2, active compounds read low
The whole screen tested about 5,500 compounds, of which about 2,000 (36%) were called active. Not shown: some 18% with an inconclusive outcome. Some of the results follow.
readout_kind: normalized growth
Reply briefly: the number, and no unit.

Please review the following examples before continuing.
CC(=O)OC1CC(OC(C)=O)C2(C)C(CC(OC(C)=O)C3(C)C4=CC(=O)OC(=O)C4(C)CCC32)C1(C)C (stereo unspecified)	1.01
CC(=O)O[C@@H]1CC[C@@]2(C)C(CC[C@]3(C)C2CC=C2C4CC(C)(C)CC[C@]4(C(=O)O)CC[C@]23C)C1(C)C (stereo partly specified)	0.981
CC(C)(Sc1cc(C(C)(C)C)c(O)c(C(C)(C)C)c1)Sc1cc(C(C)(C)C)c(O)c(C(C)(C)C)c1	1.01
CC(=O)O[C@H]1CC[C@@]2(C)C(CC[C@]3(C)C2CC=C2C4CC(C)(C)CC[C@]4(C)CC[C@]23C)C1(C)C (stereo partly specified)	1.02
O=c1cc(CO)occ1O	1.03

Then there is this compound:
Assign normalized growth to the following record: "N=C(N)c1ccc(OCCCCCOc2ccc(C(=N)N)cc2)cc1" 0.934

* * *

- method: chemical genetic growth profiling, strain panel (AID 1159580)
- cond: S. cerevisiae deletion strains, growth OD, locus YIL066C, strain RNR3
In all, about 5,500 compounds went through this assay and about 2,000 (36%) were called active. Not shown: some 18% with an inconclusive outcome. Cut-off read from the data, not from the text of the source: active = normalized growth mostly below about 0.91 (no sharp cut-off); inconclusive = no clear call, values can overlap the other calls; inactive = mostly above about 0.92. This is one part of the list.
Response enum: active, inactive

Worked examples, 4 compounds total:
CC1(C)CC[C@]2(C(=O)O)CC[C@]3(C)C(=CCC4[C@@]5(C)CC[C@@H](O)C(C)(C)C5CC[C@]43C)C2C1 (stereo not given in full)	inactive
NC(Cc1c[nH]c2ccccc12)C(=O)O (stereo not given)	inactive
CCCCCCCCCCCC[C@H](C(=O)O)[C@@H](C)C(=O)O	inactive
CC(C)=CCCC1(C)C=Cc2c(O)c3c(c(CC=C(C)C)c2O1)OC12C(=CC4CC1C(C)(C)OC2(C/C=C(/C)C(=O)O)C4=O)C3=O (stereo not given)	active

Note: attention shifts to another entry.
Dear colleague, could you share the recorded outcome for "NC12CC3CC(CC(C3)C1)C2" when you have a moment? inactive

* * *

- method: chemical genetic growth profiling, strain panel (AID 1159580);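 note: tested at 20 µM; growth read once vehicle control cultures reached saturation at 30 °C; 1 = growth at the plate median or of vehicle wells; lower values mean less growth of the strain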
- cond: S. cerevisiae deletion strains, growth OD, locus YOL012C, strain htz1
Out of some 5,500 compounds screened, about 2,000 (36%) were called active. Roughly 18% stayed inconclusive and do not appear here. Rule as the data show it: active = normalized growth mostly below about 0.91 (no sharp cut-off); inconclusive = no clear call, values can overlap the other calls; inactive = mostly above about 0.92. The list shows a part of the results.
Please state which outcome applies, choosing from 1.0 (active), 0.0 (inactive)

CC(=O)O[C@H]1CC[C@@]2(C)C(CC[C@]3(C)C2C(=O)C=C2C4[C@@H](C)[C@H](C)CC[C@]4(C(=O)O)CC[C@]23C)C1(C)C (stereo partly specified)	0.0

Lab log entry: "CCOP(=S)(OCC)Oc1cc(C)nc(C(C)C)n1" — outcome as called in the assay? 0.0

Status in this test for "Cc1cn([C@H]2C[C@H](N=[N+]=[N-])[C@@H](CO)O2)c(=O)[nH]c1=O" ? 0.0

Call for entry OC(CCN1CCCC1)(c1ccccc1)C1CCCCC1 (stereo unspecified) : 0.0

* * *

- method: chemical genetic growth profiling, strain panel (AID 1159580);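 note: tested at 20 µM; growth read once vehicle control cultures reached saturation at 30 °C; 1 = growth at the plate median or of vehicle wells; lower values mean less growth of the strain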
- cond: S. cerevisiae deletion strains, growth OD, locus YEL003W, strain gim4, active compounds read low
The campaign covered roughly 5,500 compounds. About 2,000 (36%) were called active. Roughly 18% stayed inconclusive and do not appear here. The list shows a part of the results.
Measured normalized growth, listed per entry.
Reply with just the number.

Look over these answered cases.
COc1cc(N)c(Cl)cc1C(=O)NC1CCN(Cc2ccccc2)CC1	0.999
COC(=O)Nc1nc2ccc(S(=O)c3ccccc3)cc2[nH]1 (configuration not stated)	0.962
O=C(CNC(=O)c1ccc(Cl)cc1)NO	1.01
O=C1C(O)=C(O)C(=O)C(O)=C1O	1.02
COC(=O)Nc1nc2ccc(C(=O)c3ccccc3)cc2[nH]1	0.173

Annotate the molecule "Nc1c2ccccc2nc2ccccc12" with its measured normalized growth. 0.679

Tell us which normalized growth value is on record for "Cc1cc(C(C)(C)C)c(O)c(C(C)(C)C)c1" 0.967

Identify normalized growth associated with the molecule OC(CCN1CCCCC1)(c1ccccc1)C1CC2C=CC1C2 (configuration not stated) 0.993

Identify measured normalized growth associated with Nc1ccccc1C(=O)CC(N)C(=O)O (configuration not stated) 1.01

For the molecule N#CC(O[C@@H]1O[C@H](CO[C@@H]2O[C@H](CO)[C@@H](O)[C@H](O)[C@H]2O)[C@@H](O)[C@H](O)[C@H]1O)c1ccccc1 (some centres not stated) , give its reported normalized growth. 0.99

Read off the recorded normalized growth for "CNCc1ccccc1" 1.02

Determine its reported normalized growth: "O=c1[nH]cc(F)c(=O)[nH]1" 0.518

* * *

- method: chemical genetic growth profiling, strain panel (AID 1159580);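 note: tested at 20 µM; growth read once vehicle control cultures reached saturation at 30 °C; 1 = growth at the plate median or of vehicle wells; lower values mean less growth of the strain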
- cond: S. cerevisiae deletion strains, growth OD, locus YCL061C, strain MRC1
The campaign covered roughly 5,500 compounds. About 2,000 (36%) were called active. About 18% were inconclusive and are not listed. Cut-off read from the data, not from the text of the source: active = normalized growth mostly below about 0.91 (no sharp cut-off); inconclusive = no clear call, values can overlap the other calls; inactive = mostly above about 0.92. This is one part of the list.
// classify into t = active, f = inactive

CCCCCCCCCCCCCCC(C(=O)O)C(O)(CC(=O)OC)C(=O)O (stereo unspecified)	f
CCN1C[C@]2(OC(=O)c3ccccc3NC(C)=O)CCC(OC)[C@]34C1[C@H](CC23)[C@@]1(O)CC(OC)[C@H]2CC4C1(O)[C@H]2OC (stereo partly specified)	f
CC1(C)CC[C@]2(C)CC[C@]3(C)C(=CCC4[C@@]5(C)CC[C@H](O)C(C)(C)C5CC[C@]43C)C2C1 (stereo partly specified)	f
O=c1[nH]cc(F)c(=O)[nH]1	t
CCCCCCCCCCCC[C@H](C(=O)O)[C@@H](C)C(=O)O	f

Switching to the query record.
Each compound tested received a call. Report the one for CC(OCc1ccccc1)C(NC(=O)OC(C)(C)C)C(N)=O (stereo unspecified) . f
